# credit: the supplement of paper PMC10307832

System: UMC-11
Experiment: relative viability (nuclei count vs DMSO), 5 days (fraction); higher = more cells survive
Conditions: first compound 0.005 µM
Categorize each record by its relative viability using low interval = under 0.5, middle interval = from 0.5 up to 0.8, high interval = 0.8 and over

Determine which band this compound sits in: COc1cc2nccc(Oc3ccc(NC(=O)Nc4cc(C)on4)c(Cl)c3)c2cc1OC [Tivozanib] + N=C(N)NC(=N)NCCc1ccccc1 [Phenformin] (partner 250 µM)
low interval

Which category fits this record: COc1cc2nccc(Oc3ccc(NC(=O)Nc4cc(C)on4)c(Cl)c3)c2cc1OC [Tivozanib] + O=C(c1cc(Cc2n[nH]c(=O)c3ccccc23)ccc1F)N1CCN(C(=O)C2CC2)CC1 [Olaparib] (partner 8 µM)
low interval

Which class holds Nc1ccn([C@@H]2O[C@H](CO)[C@@H](O)[C@@H]2O)c(=O)n1 [Cytarabine] + C[C@@H](Oc1cc(-c2cnn(C3CCNCC3)c2)cnc1N)c1c(Cl)ccc(F)c1Cl [Crizotinib] (partner 1 µM) ?
low interval

Category of Nc1ccn([C@@H]2O[C@H](CO)[C@@H](O)[C@@H]2O)c(=O)n1 [Cytarabine] + Nc1ncn([C@H]2C[C@H](O)[C@@H](CO)O2)c(=O)n1 [Decitabine] (partner 2 µM) :
middle interval

Hi, small favor: classify COc1cc2nccc(Oc3ccc(NC(=O)Nc4cc(C)on4)c(Cl)c3)c2cc1OC [Tivozanib] + CC(=O)Nc1cccc(-n2c(=O)n(C3CC3)c(=O)c3c(Nc4ccc(I)cc4F)n(C)c(=O)c(C)c32)c1 [Trametinib] (partner 0.02 µM) by its relative viability when you get a moment.
middle interval

# classify by relative viability band: COc1cc2nccc(Oc3ccc(NC(=O)Nc4cc(C)on4)c(Cl)c3)c2cc1OC [Tivozanib] + CS(=O)(=O)CCNCc1ccc(-c2ccc3ncnc(Nc4ccc(OCc5cccc(F)c5)c(Cl)c4)c3c2)o1 [Lapatinib] (partner 2 µM)
high interval

====

Provide the recorded relative viability for the entries that follow.
Tested on: UMC-11
Assay: relative viability (nuclei count vs DMSO), 5 days (fraction); higher = more cells survive
Details: first compound 0.006325 µM
Form rule: numeric answer, no unit written next to it.

Summary for this compound, CC(=O)O[C@@]12CO[C@@H]1C[C@H](O)[C@@]1(C)C(=O)[C@H](O)C3=C(C)[C@@H](OC(=O)[C@H](O)[C@@H](NC(=O)OC(C)(C)C)c4ccccc4)C[C@@](O)([C@@H](OC(=O)c4ccccc4)[C@H]21)C3(C)C [Docetaxel] + Cc1cc(Nc2cc(N3CCN(C)CC3)nc(Sc3ccc(NC(=O)C4CC4)cc3)n2)n[nH]1 [Tozasertib] (partner 0.1 µM) : relative viability is 0.227

Documented relative viability of CC(=O)O[C@@]12CO[C@@H]1C[C@H](O)[C@@]1(C)C(=O)[C@H](O)C3=C(C)[C@@H](OC(=O)[C@H](O)[C@@H](NC(=O)OC(C)(C)C)c4ccccc4)C[C@@](O)([C@@H](OC(=O)c4ccccc4)[C@H]21)C3(C)C [Docetaxel] + CC(=O)c1c(C)c2cnc(Nc3ccc(N4CCNCC4)cn3)nc2n(C2CCCC2)c1=O [Palbociclib] (partner 0.5 µM) : 0.266

Record CC(=O)O[C@@]12CO[C@@H]1C[C@H](O)[C@@]1(C)C(=O)[C@H](O)C3=C(C)[C@@H](OC(=O)[C@H](O)[C@@H](NC(=O)OC(C)(C)C)c4ccccc4)C[C@@](O)([C@@H](OC(=O)c4ccccc4)[C@H]21)C3(C)C [Docetaxel] + Nc1nc2[nH]cc(CCc3ccc(C(=O)N[C@@H](CCC(=O)O)C(=O)O)cc3)c2c(=O)[nH]1 [Pemetrexed] (partner 0.2 µM) , field relative viability: 0.256

Just so you know, measured relative viability for CC(=O)O[C@@]12CO[C@@H]1C[C@H](O)[C@@]1(C)C(=O)[C@H](O)C3=C(C)[C@@H](OC(=O)[C@H](O)[C@@H](NC(=O)OC(C)(C)C)c4ccccc4)C[C@@](O)([C@@H](OC(=O)c4ccccc4)[C@H]21)C3(C)C [Docetaxel] + C[C@]1(O)C[C@@H](c2nc(-c3ccc4ccc(-c5ccccc5)nc4c3)c3c(N)nccn32)C1 [Linsitinib] (partner 1 µM) came out at 0.237
